target_system: T1, human Rh(D) antigen on Rh(D)-positive red blood cells (human, UniProt Q02161 2-417)
T1 construct: whole, on cells; also called wt; wild type Rh(D)
T1 sequence (looked up): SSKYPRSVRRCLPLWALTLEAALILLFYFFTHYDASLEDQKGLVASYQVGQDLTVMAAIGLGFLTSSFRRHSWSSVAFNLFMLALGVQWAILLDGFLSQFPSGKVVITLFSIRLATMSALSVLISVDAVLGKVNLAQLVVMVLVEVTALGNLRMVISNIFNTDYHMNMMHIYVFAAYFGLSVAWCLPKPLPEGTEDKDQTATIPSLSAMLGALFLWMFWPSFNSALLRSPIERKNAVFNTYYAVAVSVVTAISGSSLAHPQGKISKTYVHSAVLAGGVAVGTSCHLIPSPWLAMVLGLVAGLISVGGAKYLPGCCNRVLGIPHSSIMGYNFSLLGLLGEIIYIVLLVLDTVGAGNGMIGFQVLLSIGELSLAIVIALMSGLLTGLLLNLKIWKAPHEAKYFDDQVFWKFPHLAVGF
method_summary: agglutination, anti-M13
observation_type: binding result

1. SH34 (Fab, V domains shown, Fab on M13 phage) VH: EVQLLESGGGVVQPGRSLRLSCAASGFSFSSYGMHWVRQAPGKGLEWVAVISYDGTNKYFADSVKGRFTISRDNSKKTLYLQMTSLRPEDTAVYFCANLRGEVTRRASVPLDIWGQGTMVTVSS VL: AELTQSPSSLSASVGDRVTITCRASQSISSYLNWYQQKPGKAPKLLIYAASGLQSGVPSRFSGSGSGTDFTLTISSLQPEDFATYYCQQSYSTPPYTFGQGTKLEIKR
binds
2. SH30 (Fab, V domains shown, Fab on M13 phage) VH: EVQLLESGGGVVQPGRSLRLSCAVSGFTLTNYGMHWVRQAPGKGLEWVAHVWYDGSKTEYADSVKGRFAVSRDKSKNTLFLQMNSLTAEDTAIYYCARERREKVYILFYSWLDRWGQGTLVTVSS VL: AELTQSPSSLSASVGDRVTITCRASQSIRRSLNWYQQSPGKTPKLLIYAASSLQSGVPSRFSGSGSGTDFTLTISSLQPEDFATYYCQQSYSTLTFGGGTKVEIKR
binds
3. SH39 (Fab, V domains shown, Fab on M13 phage) VH: VQLLEQSGGGVVQPGRSLRLSCAASGFTFSSYGMHWVRQAPGKGLEWVAVIWFDGSNKEYADSVKGRFTISRDNSKNTLYLQMNSLRAEDTAVYYCAREEVVRGVILWSRKFDYWGQGTLVTVSS VL: AELTQSPSSLSASVGDRVTITCRASQTIGRYLNWYQQRPGKAPKLLVYAVSSLQSGAPSRFSGSGSGTHFTLTITSLQPEDFATYFCQQSYSSPFTFGQGTKVEIKR
binds

Taken from patent US8124742.
